Origin of the recorded values: ChEMBL document CHEMBL3988442

- System: Wolbachia pipientis
- protocol text: Anti-Wolbachia Cell-Based Screen
- Assay type: functional
- Design: scale not given: in the data most compounds retested in dose-response had high values
- recorded conditions: 5 µM
About 13,000 (27%) of roughly 48,000 compounds showed an effect of 50% or more. This is one part of the list.
Would you mind labelling by Percent Effect? At or over 20% is Condition met, under is Condition not met.

molecule | label
CC(C)N1CCC(C(=O)N[C@H](C(=O)O)c2cccc(F)c2F)CC1 | Condition met
CCCc1n[nH]c(=O)n1[C@@H](CC)c1ccccc1 | Condition met
CC(C)n1cc(CN2CCCN(C(=O)c3nccnc3N)CC2)cn1 | Condition not met
COc1ccccc1-c1nc(C(=O)N2CCOCC2)n2ccncc12 | Condition met
CC(C)C(C(=O)N1CCCN(Cc2cnn(C)c2)CC1)n1cncn1 (configuration not stated) | Condition not met
COc1ccccc1C1(CNc2ccnc(C(=O)N(C)C)c2)CC1 | Condition not met
CN1CCc2[nH]nc(C(=O)N3CCC4(CN(C)C(=O)O4)C3)c2C1 (configuration not stated) | Condition not met
